Value source: patent US20240150797A1

Test: Specific activity of purified CHI, absorbance decrease at 384 nm, eriodictyol chalcone; note: unit not given here
Format: biochemical
Settings: purified CHI in 50 mM PBS, 100 μM substrate, 25° C.
Observed Property: Specific activity, Eriodictyol chalcone
A bare number is all that is needed in reply.

Request: What does the data say about its Specific activity, Eriodictyol chalcone? Entry: CHI12: Chalcone isomerase from Holophaga foetida, access no. WP_005036737.1 (protein, listed as Holophaga foetida) TVEFCPMRSLIYVGLSKEKYRHLLQNWLYRIHIPDSISQFGPYVTKYAFYNALPVPPEGERFGTIKMQLTEHYWQCNPFQQAVAVKTFKEVFPIDVLRWQGNMPDESDGAVELEGDEARSAKGGQGAKPFIFAFVPLWWEEDIKGKMRTIADGPNYRWQFVMKYPEGVSQEQGDKWFLEEVAPAFAAMPEVNRILSSKIIQNVNGCSFNRVVEMWFDGPDEWYAAAVTKAAALPKPTWAKQDKFPFLASDYEFASVFLTDYATSDNLSQYRGYITLR
Result: 28.2
